Every entry's value here was drawn from ChEMBL document CHEMBL3745688.

Recorded IC50, one value per entry.
assay_text: Antiproliferative activity against mouse B16F10 cells after 72 hrs by MTT assay
Type: functional, cell-based
applied_conditions: B16-F10, 72 h
readout_kind: IC50 (µM)

>>> df
                                 mol_smiles  reading_unit  number
0  CC(=O)Oc1ccc(/C=C/C(=O)OCCSc2nc(-c3ccc(S(N)(=O)=O)cc3)n(-c3ccc(F)cc3)n2)cc1OC(C)=O            µM      11
1  CC(=O)Oc1ccc(/C=C/C(=O)NCCCSc2nc(-c3ccc(S(C)(=O)=O)cc3)n(-c3ccc(F)cc3)n2)cc1OC(C)=O            µM    15.2
2  CC(=O)Oc1ccc(/C=C/C(=O)OCCCSc2nc(-c3ccc(S(C)(=O)=O)cc3)n(-c3ccc(Br)cc3)n2)cc1OC(C)=O            µM    12.8
3  CS(=O)(=O)c1ccc(-c2nc(SCCCNC(=O)/C=C/c3ccc(O)c(O)c3)nn2-c2ccc(F)cc2)cc1            µM    18.7
4  CC(=O)Oc1ccc(/C=C/C(=O)OCCSc2nc(-c3ccc(S(C)(=O)=O)cc3)n(-c3ccc(F)cc3)n2)cc1OC(C)=O            µM    14.2
5  CSc1nc(-c2ccc(S(N)(=O)=O)cc2)n(-c2ccc(Cl)cc2)n1            µM    32.3
6  COc1cc(/C=C/C(=O)OCCSc2nc(-c3ccc(S(C)(=O)=O)cc3)n(-c3ccc(C)cc3)n2)ccc1OC(C)=O            µM    15.3
7       O=C(/C=C/c1ccc(O)c(O)c1)OCCc1ccccc1            µM    10.7

###

Recorded Ratio IC50, one value per entry.
assay_text: Selectivity index, ratio of IC50 for rat COX2 to IC50 for calf COX1
readout_kind: Ratio IC50

                                 mol_smiles  number
0  CS(=O)(=O)c1ccc(-c2nc(SCCCNC(=O)/C=C/c3ccc(O)c(O)c3)nn2-c2ccc(F)cc2)cc1   0.009
1  CS(=O)(=O)c1ccc(-c2nc(SCCCOC(=O)/C=C/c3ccccc3)nn2-c2ccc(Br)cc2)cc1   0.009
2  COc1cc(/C=C/C(=O)OCCSc2nc(-c3ccc(S(C)(=O)=O)cc3)n(-c3ccc(C(F)(F)F)cc3)n2)ccc1O    0.01
3  CS(=O)(=O)c1ccc(-c2nc(SCCCOC(=O)/C=C/c3ccc(O)c(O)c3)nn2-c2ccc(F)cc2)cc1   0.014

###

tested_on: Prostaglandin G/H synthase 2 (Rattus norvegicus, UniProt P35355)
Sequence (P35355 whole entry): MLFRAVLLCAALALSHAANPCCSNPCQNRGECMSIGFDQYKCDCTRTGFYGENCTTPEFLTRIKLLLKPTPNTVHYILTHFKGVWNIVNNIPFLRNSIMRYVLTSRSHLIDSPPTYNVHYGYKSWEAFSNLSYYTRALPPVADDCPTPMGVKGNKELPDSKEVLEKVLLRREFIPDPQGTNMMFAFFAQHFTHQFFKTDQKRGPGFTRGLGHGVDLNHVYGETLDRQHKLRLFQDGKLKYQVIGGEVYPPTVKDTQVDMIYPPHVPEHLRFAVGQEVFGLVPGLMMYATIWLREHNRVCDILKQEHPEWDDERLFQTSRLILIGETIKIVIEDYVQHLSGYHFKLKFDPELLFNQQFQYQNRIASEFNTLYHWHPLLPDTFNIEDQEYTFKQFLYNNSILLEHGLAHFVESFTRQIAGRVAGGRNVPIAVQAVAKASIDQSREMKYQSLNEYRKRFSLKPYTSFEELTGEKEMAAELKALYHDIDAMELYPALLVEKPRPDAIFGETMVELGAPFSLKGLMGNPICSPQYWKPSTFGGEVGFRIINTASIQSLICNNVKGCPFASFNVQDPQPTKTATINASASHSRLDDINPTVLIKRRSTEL
assay_text: Inhibition of COX2 in rat abdominal macrophages assessed as PGE2 production pretreated for 30 mins followed by addition of 10 uM arachidonic acid as substrate for 20 mins by EIA
pIC50: −log10 of the molar value.
readout_kind: pIC50

>>> df
                                 mol_smiles                                 tested_on  number
0  CS(=O)(=O)c1ccc(-c2nc(SCCCOC(=O)/C=C/c3ccc(O)c(O)c3)nn2-c2ccc(F)cc2)cc1  Prostaglandin G/H synthase 2 (Rattus norvegicus, UniProt P35355)    6.74
1  CC(=O)Oc1ccc(/C=C/C(=O)OCCSc2nc(-c3ccc(S(N)(=O)=O)cc3)n(-c3ccccc3)n2)cc1OC(C)=O  Prostaglandin G/H synthase 2 (Rattus norvegicus, UniProt P35355)    6.07
2  COc1cc(/C=C/C(=O)OCCSc2nc(-c3ccc(S(C)(=O)=O)cc3)n(-c3ccccc3)n2)ccc1O  Prostaglandin G/H synthase 2 (Rattus norvegicus, UniProt P35355)    6.24
3  CC(=O)Oc1ccc(/C=C/C(=O)OCCSc2nc(-c3ccc(S(N)(=O)=O)cc3)n(-c3ccc(F)cc3)n2)cc1OC(C)=O  Prostaglandin G/H synthase 2 (Rattus norvegicus, UniProt P35355)    6.41
4  CC(=O)Oc1ccc(/C=C/C(=O)NCCSc2nc(-c3ccc(S(N)(=O)=O)cc3)n(-c3ccc(Br)cc3)n2)cc1OC(C)=O  Prostaglandin G/H synthase 2 (Rattus norvegicus, UniProt P35355)    6.74
5  CC(=O)Oc1ccc(/C=C/C(=O)NCCCSc2nc(-c3ccc(S(N)(=O)=O)cc3)n(-c3ccccc3)n2)cc1OC(C)=O  Prostaglandin G/H synthase 2 (Rattus norvegicus, UniProt P35355)    6.20
6  NS(=O)(=O)c1ccc(-c2nc(SCCOC(=O)/C=C/c3ccc(O)c(O)c3)nn2-c2ccccc2)cc1  Prostaglandin G/H synthase 2 (Rattus norvegicus, UniProt P35355)    6.21

###

tested_on: UniProt:P12527
assay_text: Inhibition of 5-LOX in Sprague-Dawley rat leukocytes assessed as A23187 stimulated LTB4 production pretreated for 30 mins followed by addition of A23187 for 30 mins by EIA
Label condition met when IC50 < 1000 nM; otherwise condition not met.

In [3]: df
Out[3]:
                                 mol_smiles     discrete_label
0  CC(=O)Oc1ccc(/C=C/C(=O)OCCSc2nc(-c3ccc(S(C)(=O)=O)cc3)n(-c3ccc(F)cc3)n2)cc1OC(C)=O  condition not met
1  COc1cc(/C=C/C(=O)OCCSc2nc(-c3ccc(S(C)(=O)=O)cc3)n(-c3ccc(C(F)(F)F)cc3)n2)ccc1O      condition met
2  CS(=O)(=O)c1ccc(-c2nc(SCCCOC(=O)/C=C/c3ccccc3)nn2-c2ccc(Br)cc2)cc1  condition not met
3  CC(=O)Oc1ccc(/C=C/C(=O)OCCSc2nc(-c3ccc(S(C)(=O)=O)cc3)n(-c3ccc(C(F)(F)F)cc3)n2)cc1OC(C)=O  condition not met

###

tested_on: Polyunsaturated fatty acid 5-lipoxygenase (Rattus norvegicus)
Sequence (P12527 whole entry): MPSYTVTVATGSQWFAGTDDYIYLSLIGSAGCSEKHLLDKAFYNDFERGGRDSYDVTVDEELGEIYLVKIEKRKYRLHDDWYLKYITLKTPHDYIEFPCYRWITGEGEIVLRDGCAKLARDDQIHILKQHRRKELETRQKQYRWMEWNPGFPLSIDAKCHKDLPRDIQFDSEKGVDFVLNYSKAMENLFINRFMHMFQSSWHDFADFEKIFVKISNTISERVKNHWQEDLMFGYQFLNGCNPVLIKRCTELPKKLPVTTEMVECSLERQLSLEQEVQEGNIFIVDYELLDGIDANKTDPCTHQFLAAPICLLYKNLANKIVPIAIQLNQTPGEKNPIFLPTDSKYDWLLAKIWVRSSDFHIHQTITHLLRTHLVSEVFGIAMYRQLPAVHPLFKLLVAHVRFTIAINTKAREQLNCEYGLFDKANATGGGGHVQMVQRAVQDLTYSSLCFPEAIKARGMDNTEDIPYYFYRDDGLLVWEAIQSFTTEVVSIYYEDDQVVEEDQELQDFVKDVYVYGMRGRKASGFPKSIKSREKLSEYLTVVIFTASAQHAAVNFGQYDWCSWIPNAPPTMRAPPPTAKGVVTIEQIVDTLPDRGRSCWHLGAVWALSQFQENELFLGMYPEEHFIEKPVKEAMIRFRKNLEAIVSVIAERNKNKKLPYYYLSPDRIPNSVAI
assay_text: Inhibition of 5-LOX in Sprague-Dawley rat leukocytes assessed as A23187 stimulated LTB4 production pretreated for 30 mins followed by addition of A23187 for 30 mins by EIA
readout_kind: IC50 (µM)

>>> print(df.to_string())
                                 mol_smiles  readout_kind  reading_unit  number
0  CC(=O)Oc1ccc(/C=C/C(=O)NCCCSc2nc(-c3ccc(S(C)(=O)=O)cc3)n(-c3ccc(F)cc3)n2)cc1OC(C)=O          IC50            µM    0.98
1  CC(=O)Oc1ccc(/C=C/C(=O)NCCCSc2nc(-c3ccc(S(C)(=O)=O)cc3)n(-c3ccc(Br)cc3)n2)cc1OC(C)=O          IC50            µM    0.99
2  COc1cc(/C=C/C(=O)OCCSc2nc(-c3ccc(S(C)(=O)=O)cc3)n(-c3ccc(C)cc3)n2)ccc1OC(C)=O          IC50            µM    0.98
